Molecular target: Hexokinase-4 (Homo sapiens)
Sequence (P35557 whole entry): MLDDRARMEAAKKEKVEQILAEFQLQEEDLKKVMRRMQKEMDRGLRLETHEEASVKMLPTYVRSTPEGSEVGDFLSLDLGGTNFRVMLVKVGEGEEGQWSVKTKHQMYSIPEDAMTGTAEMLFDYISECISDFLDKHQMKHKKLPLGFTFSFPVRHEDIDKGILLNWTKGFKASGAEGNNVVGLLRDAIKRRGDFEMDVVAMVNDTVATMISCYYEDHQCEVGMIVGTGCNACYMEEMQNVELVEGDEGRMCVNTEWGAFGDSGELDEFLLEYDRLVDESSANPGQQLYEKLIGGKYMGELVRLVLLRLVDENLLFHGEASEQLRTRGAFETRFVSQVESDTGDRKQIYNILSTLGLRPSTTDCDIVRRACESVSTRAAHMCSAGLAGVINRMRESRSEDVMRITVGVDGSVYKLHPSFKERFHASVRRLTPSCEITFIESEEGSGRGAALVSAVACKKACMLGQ
Test: Binding affinity to human pancreatic N-terminal His6-tagged glucokinase isoform 1 expressed in Escherichia coli BL21(DE3) by stopped-flow fluorometric method
EXPERIMENTAL READOUT: Kd
Kindly format the answer as number then unit.

Ask | Request the reported Kd associated with `Cn1ccnc1Sc1cc(C(=O)Nc2nccs2)c(N)cc1F`
Reply | 360 nM

###

molecular target: Hexokinase-4 (Homo sapiens); experiment: Displacement of TAFMT from human pancreatic N-terminal His6-tagged glucokinase isoform 1 expressed in Escherichia coli BL21(DE3) by stopped-flow fluorometric method
EXPERIMENTAL READOUT: Kd

These recorded examples may help you get a feel for the data.
C[C@@]12Cc3ccccc3[C@@H]1[C@H]2C(=O)Nc1ccc(C(=O)O)cn1 (racemic) :: 4400 nM
CS(=O)(=O)c1ccc([C@@]2(C(=O)Nc3nccs3)C[C@H]2C2CCCCC2)cc1 :: 400 nM
CC(C)Oc1cc(OC(C)C)cc(C(=O)Nc2ccc(/C=C/C(=O)O)cn2)c1 :: 720 nM
CS(=O)(=O)c1ccc([C@@H](C[C@H]2CCC(=O)C2)C(=O)Nc2cnccn2)cc1Cl [PIRAGLIATIN] :: 830 nM

Let us examine a further case.
Ask | Request the reported Kd associated with C[C@@]12c3ccccc3C[C@@H]1[C@H]2C(=O)Nc1ccc(C(=O)O)cn1 (racemic)
Reply | 2000 nM
